system: Wolbachia pipientis; assay: Anti-Wolbachia Cell-Based Screen; type: functional; design: scale not given: in the data most compounds retested in dose-response had high values; conditions: 5 µM
Hit rate of the full screen: of about 48,000 compounds, about 13,000 (27%) showed an effect of 50% or more. Some of the results follow.
parameter_measured: Percent Effect (%)
Give a bare numeral; the unit % is implied.

Examples with answers:
compound | u | Percent Effect
Cn1ccnc1COc1ccc(CO)cc1 | % | 4.503
COc1ccccc1N(C)Cc1nc2c(cnn2C)c(=O)[nH]1 | % | -7.278
CCN1CCC(CC(=O)N[C@H](C(=O)O)c2cccc(F)c2F)CC1 | % | 0.01063
Cn1nc(C(=O)N2CCC(Oc3ccc(C#N)cn3)CC2)ccc1=O | % | 4.281
O=C(c1cnn2cc(CCO)cnc12)N1CCOC(C(F)(F)F)C1 (centres undefined) | % | -0.009577

# input Value lookup for Percent Effect; key = Cc1ccc(NC(=O)c2ccc(=O)n(CC(=O)NC3CCCC3)n2)cc1
# output 106.4

# input Value lookup for Percent Effect; key = COCc1nc(N(C)C/C=C/c2ccccc2)c2cnn(C)c2n1
# output -13.22

# input Value lookup for Percent Effect; key = COc1cccc(CN(C)Cc2nc3c(cnn3C)c(=O)[nH]2)c1OC
# output 14.32

# input Value lookup for Percent Effect; key = CC(=O)N1CCN(Cc2ccc(OCc3nccn3C)cc2)CC1
# output 94.07

# input Value lookup for Percent Effect; key = COc1ccccc1OC1CCN(C(=O)c2cnc(C)cc2C)CC1
# output -3.522

# input Value lookup for Percent Effect; key = Cc1nc(CN2CCCC(NCc3ccc4ccccc4c3)C2)no1 (centres undefined)
# output 117

These data points were gathered from ChEMBL document CHEMBL3988442.
